System: Human immunodeficiency virus 1
Test: Antiviral activity against PI resistant HIV-1 L70R/M461/L63P/V82T/184V infected in human TZM-bl cells assessed as inhibition of replication for 48 hrs by microplate reader method
Assay type: functional, organism-based
Details: Human immunodeficiency virus 1, L70R/M461/L63P/V82T/184V
REPORTED_ENDPOINT: pEC50
pEC50 is a log-scale quantity: -log10 of the concentration expressed in molar.

What does the data say about its pEC50? Entry: "COc1ccc(O)cc1NC(=O)c1c(N)cccc1S(=O)(=O)c1ccc([N+](=O)[O-])cc1"
5.36

* * *

Provide the reported selectivity ratio of each item.
Assay: Therapeutic index, ratio of CC50 for cytotoxicity against human H9 cells to EC50 for antiviral activity against HIV13B
Format: toxicity, cell-based
Conditions: read-out: TI
Number only, please.

For the molecule shown here, "COc1ccc(Cl)cc1NC(=O)c1c(N)ncnc1Sc1ccc([N+](=O)[O-])cc1" , give the reported selectivity ratio.
0.11

Look up selectivity ratio for this molecule: "COc1ccc(O)cc1NC(=O)c1c(N)ncnc1Sc1ccc([N+](=O)[O-])cc1"
0.88

* * *

Experiment: Therapeutic index, ratio of CC50 for cytotoxicity against human H9 cells to EC50 for antiviral activity against HIV13B
Type: toxicity, cell-based
Conditions: read-out: TI
Kindly state selectivity ratio for each of the entries shown.

Any idea what selectivity ratio was measured for "Nc1cccc(S(=O)(=O)c2ccc([N+](=O)[O-])cc2)c1C(=O)Nc1ccc(Cl)cc1F" ?
> 9.71

Look up selectivity ratio for this compound: "COc1ccc(OC)c(NC(=O)c2c(N)cccc2S(=O)(=O)c2ccc([N+](=O)[O-])cc2)c1"
> 50.4

I would be grateful if you could share the reported selectivity ratio for "COc1ccc(NC(=O)c2c(N)cccc2S(=O)(=O)c2ccc([N+](=O)[O-])cc2)cc1OC" .
> 6.45

// query selectivity ratio value for entry "COc1ccc(OC)c(NC(=O)c2c(N)cccc2Sc2ccc([N+](=O)[O-])cc2)c1"
> 49.4

Item "COc1ccc(F)cc1NC(=O)c1c(N)ncnc1Sc1ccc([N+](=O)[O-])cc1" has what recorded selectivity ratio?
0.65

Record request: selectivity ratio value, item "COc1ccc(C(=O)O)cc1NC(=O)c1c(N)cccc1Sc1ccc([N+](=O)[O-])cc1"
> 238

What selectivity ratio value was documented for this compound, "COc1ccc(NC(=O)c2c(N)cccc2S(=O)(=O)c2ccc([N+](=O)[O-])cc2)c(OC)c1" ?
> 27.9

Fill in the blank: the reported selectivity ratio of "COc1ccccc1NC(=O)c1c(N)cccc1S(=O)(=O)c1ccc([N+](=O)[O-])cc1" is ____.
> 1380

Recorded selectivity ratio of "COc1ccc(F)cc1NC(=O)c1c(N)cccc1Sc1ccc([N+](=O)[O-])cc1" , please.
> 47.2

Which selectivity ratio value belongs to "COc1ccccc1NC(=O)c1c(N)ncnc1Sc1ccc([N+](=O)[O-])cc1" ?
3.38

Return reported selectivity ratio; argument: "COc1ccc(F)cc1NC(=O)c1c(N)cccc1S(=O)(=O)c1ccc([N+](=O)[O-])cc1"
46.4

Returns the measured selectivity ratio for the input compound. Input: "COc1ccc(O)cc1NC(=O)c1c(N)cccc1S(=O)(=O)c1ccc([N+](=O)[O-])cc1"
3700

// selectivity ratio lookup, key: "COc1cc(O)ccc1NC(=O)c1c(N)cccc1S(=O)(=O)c1ccc([N+](=O)[O-])cc1"
9.48
